TEST_SYSTEM: HLA-A*02:06
PROTOCOL_NOTES: IEDB peptide-MHC binding, purified MHC/competitive/radioactivity; filed as Kd, often an IC50 or EC50 that approximates it; bounds were set here for any values at or beyond the usual limits of such assays
DETAILS: source organism: Homo sapiens
Provide the reported Kd of each item.

The following sequences have reported results that may help.
GLKSKTHAVL ≥ 69.8 µM
TLENERGEL ≥ 45.6 µM
DLENRCQSL ≥ 78.7 µM
KLKNKHEAMI ≥ 50.3 µM

Proceeding to the next sequence to report its Kd.
State its Kd: ELVKHGLRAL
≥ 43.4 µM

====

TEST_SYSTEM: HLA-A*33:01
PROTOCOL_NOTES: IEDB peptide-MHC binding, purified MHC/competitive/radioactivity; filed as Kd, often an IC50 or EC50 that approximates it; bounds were set here for any values at or beyond the usual limits of such assays
DETAILS: source organism: Dengue virus 1 Brazil/97-11/1997
Provide the reported Kd of each item.
Units required after the number.

The following sequences have reported results that may help.
CTLPPLRFR 4.13 nM
EVKTCIWPK 2.82 nM

Proceeding to the next sequence to report its Kd.
State its Kd: MWQLMYFHR
1.43 nM

====

TEST_SYSTEM: HLA-A*02:03
PROTOCOL_NOTES: IEDB peptide-MHC binding, purified MHC/competitive/radioactivity; filed as Kd, often an IC50 or EC50 that approximates it; bounds were set here for any values at or beyond the usual limits of such assays
DETAILS: source organism: Vaccinia virus WR
Provide the reported pKd of each item.
Give bare numbers, as −log10 of the molar value.

The following sequences have reported results that may help.
LLNMRDLIV 8.91
QAKKPEVRI 5.18
NQGNILMDSI 5.39
SVIFYFISI 7.12
DMICCDSRIV 5.22

Items follow; give pKd for each.
1. YIILFILFFA
2. IASKINNNRI
3. LTKDRKMLEL
4. KILSDENYL

1: 6.17; 2: 4.73; 3: 6.88; 4: 5.93

Items follow; give pKd for each.
1. FVNFVKDMI
2. LISSDGARVI

1: 6.91; 2: 5.94

====

TEST_SYSTEM: HLA-A*68:02
PROTOCOL_NOTES: IEDB peptide-MHC binding, purified MHC/competitive/fluorescence; bounds were set here for any values at or beyond the usual limits of such assays
DETAILS: source organism: Homo sapiens
ASSAY_READOUT: IC50

Supply IC50 measured with HLA-A*68:02 for MVRVLTVIKEY .
≥ 20 µM

====

TEST_SYSTEM: HLA-A*01:01
PROTOCOL_NOTES: IEDB peptide-MHC binding, purified MHC/competitive/fluorescence; bounds were set here for any values at or beyond the usual limits of such assays
DETAILS: source organism: Zaire ebolavirus
ASSAY_READOUT: IC50

Supply IC50 measured with HLA-A*01:01 for YSTTIRYQA .
≥ 207 µM

====

TEST_SYSTEM: HLA-B*44:02
PROTOCOL_NOTES: IEDB peptide-MHC binding, purified MHC/direct/fluorescence; filed as Kd, often an IC50 or EC50 that approximates it; bounds were set here for any values at or beyond the usual limits of such assays
DETAILS: source organism: West Nile virus
ASSAY_READOUT: Kd

TSDYINTSL ≥ 20 µM

State its Kd: MLRKKQITV
≥ 20 µM
